# Species on record: Rattus norvegicus
# procedure summary: Open TG-GATES - Regimen: Daily Repeat
# Format: toxicity, organism-based, Sprague-Dawley
# Set-up: regimen Daily Repeat, gender Male, age 6 weeks
# measurement conditions: in vivo, po, 0 mg/kg, […], tissue Plasma, route gavage, dose level Control, time 28 day
# key: entry, value: Cl

The examples below pair each entry with its known result.
[[record]]
compound = "O=P1(N(CCCl)CCCl)NCCCO1 (stereo not drawn) [CYCLOPHOSPHAMIDE ANHYDROUS]"
reported_property = "Cl"
reported_measurement = "106.6 meq/L"

[[record]]
compound = "COc1ccc(Cl)cc1C(=O)NCCc1ccc(S(=O)(=O)NC(=O)NC2CCCCC2)cc1 [GLYBURIDE]"
reported_property = "Cl"
reported_measurement = "103.8 meq/L"

[[record]]
compound = "O=C1CN(/N=C/c2ccc(-c3ccc([N+](=O)[O-])cc3)o2)C(O)=N1"
reported_property = "Cl"
reported_measurement = "106.8 meq/L"

[[record]]
compound = "COc1ccc(O)c(C(C)(C)C)c1.COc1ccc(O)cc1C(C)(C)C [BUTYLATED HYDROXYANISOLE]"
reported_property = "Cl"
reported_measurement = "104.8 meq/L"

[[record]]
compound = "CS(=O)(=O)Nc1ccc([N+](=O)[O-])cc1Oc1ccccc1 [NIMESULIDE]"
reported_property = "Cl"
reported_measurement = "108.2 meq/L"


# input Item under review: Cn1cnc([N+](=O)[O-])c1Sc1ncnc2nc[nH]c12 . Reported Cl?
# output 106.6 meq/L

# input Item under review: Cn1c(=O)c2c(ncn2C)n(C)c1=O . Reported Cl?
# output 105 meq/L

# input Item under review: C=CCO . Reported Cl?
# output 101.8 meq/L

###

# Species: Rattus norvegicus
# procedure summary: Open TG-GATES - Regimen: Single
# Type: toxicity, organism-based, Sprague-Dawley
# Set-up: regimen Single, gender Male, age 6 weeks
# measurement conditions: in vivo, po, 0 mg/kg, 6 h, tissue Plasma, route gavage, dose level Control
# key: entry, value: IP
Just the number in mg/dL, nothing appended.

The examples below pair each entry with its known result.
[[record]]
compound = "CNCCC(Oc1ccc(C(F)(F)F)cc1)c1ccccc1.Cl (stereo not given) [FLUOXETINE HYDROCHLORIDE]"
unit_of_measurement = "mg/dL"
reported_measurement = 9.8

[[record]]
compound = "CS(=O)(=O)Nc1ccc([N+](=O)[O-])cc1Oc1ccccc1 [NIMESULIDE]"
unit_of_measurement = "mg/dL"
reported_measurement = 10.2

[[record]]
compound = "COc1ccc(O)c(C(C)(C)C)c1.COc1ccc(O)cc1C(C)(C)C [BUTYLATED HYDROXYANISOLE]"
unit_of_measurement = "mg/dL"
reported_measurement = 10

[[record]]
compound = "COc1ccc(Cl)cc1C(=O)NCCc1ccc(S(=O)(=O)NC(=O)NC2CCCCC2)cc1 [GLYBURIDE]"
unit_of_measurement = "mg/dL"
reported_measurement = 9.8


Next:
# input Item under review: S=C=Nc1cccc2ccccc12 [1-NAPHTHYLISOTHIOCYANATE] . Reported IP?
# output 10

###

# Species on record: Rattus norvegicus
# procedure summary: Open TG-GATES - Regimen: Daily Repeat
# Type: toxicity, organism-based, Sprague-Dawley
# Set-up: regimen Daily Repeat, gender Male, age 6 weeks
# measurement conditions: in vivo, po, 0 mg/kg, […], tissue Blood, route gavage, dose level Control, time 7 day
With a cut-off of 6%, any Ret strictly below it is called true; any Ret meeting it or above is called false.

[[record]]
compound = "C=CCO"
class_label = "true"

[[record]]
compound = "O=C1NC(=O)C(c2ccccc2)(c2ccccc2)N1"
class_label = "true"


# input Problem: For the compound Cc1cnc(NC(=O)C2=C(O)c3ccccc3S(=O)(=O)N2C)s1 , is Ret under 6%?
# output true

# input Problem: For the compound Cn1cnc([N+](=O)[O-])c1Sc1ncnc2nc[nH]c12 , is Ret under 6%?
# output false

# input Problem: For the compound COc1ccc(O)c(C(C)(C)C)c1.COc1ccc(O)cc1C(C)(C)C [BUTYLATED HYDROXYANISOLE] , is Ret under 6%?
# output true

# input Problem: For the compound CS(=O)(=O)Nc1ccc([N+](=O)[O-])cc1Oc1ccccc1 [NIMESULIDE] , is Ret under 6%?
# output false

###

# Organism: Rattus norvegicus
# procedure summary: Open TG-GATES - Regimen: Single
# Format: toxicity, organism-based, Sprague-Dawley
# Set-up: regimen Single, gender Male, age 6 weeks
# measurement conditions: in vivo, po, 0 mg/kg, 24 h, tissue Plasma, route gavage, dose level Control
reported property: AST (IU/L)
Just the number in IU/L, nothing appended.

[[record]]
compound = "Cn1cnc([N+](=O)[O-])c1Sc1ncnc2nc[nH]c12 [AZATHIOPRINE]"
unit_of_measurement = "IU/L"
reported_measurement = 74.6

[[record]]
compound = "O=C1NC(=O)C(c2ccccc2)(c2ccccc2)N1 [PHENYTOIN]"
unit_of_measurement = "IU/L"
reported_measurement = 75.2

[[record]]
compound = "O=C1CN(/N=C/c2ccc(-c3ccc([N+](=O)[O-])cc3)o2)C(O)=N1 [DANTROLENE]"
unit_of_measurement = "IU/L"
reported_measurement = 63.8


# input Item under review: Cc1cccc(Nc2cc(Cl)nc(SCC(=O)O)n2)c1C [PIRINIXIC ACID] . Reported AST?
# output 71.4

# input Item under review: C=CCO [ALLYL ALCOHOL] . Reported AST?
# output 63.2

# input Item under review: COc1ccc(O)c(C(C)(C)C)c1.COc1ccc(O)cc1C(C)(C)C [BUTYLATED HYDROXYANISOLE] . Reported AST?
# output 70.8

###

# Species on record: Rattus norvegicus
# procedure summary: Open TG-GATES - Regimen: Single
# Assay type: toxicity, organism-based, Sprague-Dawley
# Parameters: regimen Single, gender Male, age 6 weeks
# measurement conditions: in vivo, po, 0 mg/kg, 9 h, tissue Plasma, route gavage, dose level Control
# key: entry, value: K
Just the number in meq/L, nothing appended.

# input Item under review: COc1ccc(Cl)cc1C(=O)NCCc1ccc(S(=O)(=O)NC(=O)NC2CCCCC2)cc1 [GLYBURIDE] . Reported K?
# output 3.5

# input Item under review: S=C=Nc1cccc2ccccc12 [1-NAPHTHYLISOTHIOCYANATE] . Reported K?
# output 4

# input Item under review: CNCCC(Oc1ccc(C(F)(F)F)cc1)c1ccccc1.Cl (stereo not drawn) [FLUOXETINE HYDROCHLORIDE] . Reported K?
# output 5.1

###

# key: entry, value: RBC
# Species on record: Rattus norvegicus
# procedure summary: Open TG-GATES - Regimen: Single
# Format: toxicity, organism-based, Sprague-Dawley
# Set-up: regimen Single, gender Male, age 6 weeks
# measurement conditions: in vivo, po, 0 mg/kg, 24 h, tissue Blood, route gavage, dose level Control
Just the number in x10_4/ul, nothing appended.

[[record]]
compound = "Cc1cnc(NC(=O)C2=C(O)c3ccccc3S(=O)(=O)N2C)s1"
reported_measurement = 646.8

[[record]]
compound = "O=C1NC(=O)C(c2ccccc2)(c2ccccc2)N1"
reported_measurement = 625.6

[[record]]
compound = "O=C1CN(/N=C/c2ccc(-c3ccc([N+](=O)[O-])cc3)o2)C(O)=N1"
reported_measurement = 602.2

[[record]]
compound = "S=C=Nc1cccc2ccccc12 [1-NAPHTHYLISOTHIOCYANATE]"
reported_measurement = 601

[[record]]
compound = "Cn1cnc([N+](=O)[O-])c1Sc1ncnc2nc[nH]c12"
reported_measurement = 607


Next:
# input Item under review: COc1ccc(Cl)cc1C(=O)NCCc1ccc(S(=O)(=O)NC(=O)NC2CCCCC2)cc1 [GLYBURIDE] . Reported RBC?
# output 609.6

###

# key: entry, value: PL
# Species on record: Rattus norvegicus
# procedure summary: Open TG-GATES - Regimen: Single
# Format: toxicity, organism-based, Sprague-Dawley
# Parameters: regimen Single, gender Male, age 6 weeks
# measurement conditions: in vivo, po, 0 mg/kg, 6 h, tissue Plasma, route gavage, dose level Control
Just the number in mg/dL, nothing appended.

# input Item under review: COc1ccc(O)c(C(C)(C)C)c1.COc1ccc(O)cc1C(C)(C)C [BUTYLATED HYDROXYANISOLE] . Reported PL?
# output 127.8

# input Item under review: S=C=Nc1cccc2ccccc12 [1-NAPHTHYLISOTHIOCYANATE] . Reported PL?
# output 142.8

# input Item under review: Cn1cnc([N+](=O)[O-])c1Sc1ncnc2nc[nH]c12 [AZATHIOPRINE] . Reported PL?
# output 137.8

###

# key: entry, value: LIVER
# Organism: Rattus norvegicus
# procedure summary: Open TG-GATES - Regimen: Daily Repeat
# Type: toxicity, organism-based, Sprague-Dawley
# Set-up: regimen Daily Repeat, gender Male, age 6 weeks
# measurement conditions: in vivo, po, 0 mg/kg, 72 h, tissue Liver, route gavage, dose level Control, time 3 day
Just the number in g, nothing appended.

# input Item under review: O=C1NC(=O)C(c2ccccc2)(c2ccccc2)N1 . Reported LIVER?
# output 10.1

# input Item under review: O=P1(N(CCCl)CCCl)NCCCO1 (stereo not drawn) [CYCLOPHOSPHAMIDE ANHYDROUS] . Reported LIVER?
# output 10.1

# input Item under review: COc1ccc(O)c(C(C)(C)C)c1.COc1ccc(O)cc1C(C)(C)C [BUTYLATED HYDROXYANISOLE] . Reported LIVER?
# output 10.1
